Data credit: PubChem BioAssay

Assignment: determine reported z-score for the given compounds.
Experiment: mitochondrial membrane potential change in A549 cells, profiling panel, cell-based, JC-1 fluorescence, basal, 24 h, 100 nL (AID 1138);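 note: A549 lung adenocarcinoma cells under basal conditions with no added stimulus; test concentration not given here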
Settings: higher = more signal
When you answer, write just the number.

INPUT: For the compound `CO[C@H]1O[C@H](CO)[C@@H](OC(=O)Nc2ccc3c(c2)OCO3)[C@H](OC(=O)Nc2ccccc2)[C@@H]1OC(=O)Nc1ccccc1` , give its reported z-score.
OUTPUT: 0.187

INPUT: For the compound `CN(C)C(=O)[C@@]1(Cc2ccccc2N=[N+]=[N-])N=C(c2ccc(OCCCO)cc2)O[C@H]1c1ccccc1CN=[N+]=[N-]` , give its reported z-score.
OUTPUT: 2.31

INPUT: For the compound `CC(C)CNC(=O)[C@@]1(C)c2ccccc2C(=O)N(Cc2ccc(OC(F)(F)F)cc2)[C@H]1c1ccc(CO)cc1` , give its reported z-score.
OUTPUT: 0.209

INPUT: For the compound `COC(=O)Cn1c(C(=O)N2CCCC2)cc2c1C[C@H]1CN(C(=O)c3ccccc3)[C@@](Cc3ccc(OC)cc3)(C(=O)OC)[C@@H]21` , give its reported z-score.
OUTPUT: 1.31

----------
Assignment: determine reported z-score for the given compounds.
Assay: inhibitors of hydroxyurea-induced Chk1 phosphorylation, primary screen, imaging, HeLa, phospho-Chk1 antibody, percent positive cells (AID 1186)
Details: hydroxyurea-induced phospho-Chk1 immunofluorescence imaging, higher = more signal
When you answer, write just the number.

INPUT: For the compound `O=C1O[C@@H](c2ccccc2)[C@@H](c2ccccc2)N2[C@@H](c3ccccc3OCCO)[C@]3(C(=O)Nc4ccc(C#CC5=CCCCC5)cc43)[C@@H](C(=O)O)[C@H]12` , give its reported z-score.
OUTPUT: -0.379

INPUT: For the compound `CCOC(=O)C[C@H]1[C@H](OC(=O)c2ccccc2-c2ccccc2)[C@@H](NC(=O)C2CCCCC2)c2cc(OCCCO)ccc2N1C(=O)c1ccccc1` , give its reported z-score.
OUTPUT: -0.319

INPUT: For the compound `CC(C)=C1C(=O)C(c2ccccc2)=C2CN3C(=O)N(CCc4ccccc4)C(=O)[C@]3(Cc3ccccc3)[C@H]21` , give its reported z-score.
OUTPUT: 0.844

INPUT: For the compound `COc1ccc([Si](C)(C)[C@H]2[C@H](CC(=O)N(CCO)Cc3ccccc3)O[C@@]3(C(=O)N(C)c4ccccc43)[C@@H]2C)cc1` , give its reported z-score.
OUTPUT: -0.217

INPUT: For the compound `CC(C)[Si]1(C(C)C)OCc2cc(C3CC3)nc(-c3ccccc3)c21` , give its reported z-score.
OUTPUT: -0.37

INPUT: For the compound `COc1ccc([Si](C)(C)[C@H]2[C@H](CC(=O)N3Cc4ccccc4C[C@H]3CO)O[C@@]3(C(=O)N(Cc4cccc(N5CCOC5=O)c4)c4ccccc43)[C@@H]2C)cc1` , give its reported z-score.
OUTPUT: -0.958

INPUT: For the compound `O=C1O[C@@H](c2ccccc2)[C@@H](c2ccccc2)N2[C@@H](c3ccc(OCCO)cc3)[C@]3(C(=O)Nc4ccc(C#CCCO)cc43)[C@@H](C(=O)N3CCN(c4ncccn4)CC3)[C@H]12` , give its reported z-score.
OUTPUT: 0.396

INPUT: For the compound `CC(=O)NCCCC[C@@H]1NC(=O)[C@H]2C[C@@H](C(=O)NCCCCCCN(C)C)[C@@H](c3cccc(OCCO)c3)N2C1=O` , give its reported z-score.
OUTPUT: 0.181

----------
Target: Torsin-1A-interacting protein 2 (Homo sapiens) (UniProt Q8NFQ8)
Sequence (Q8NFQ8 whole entry, looked up): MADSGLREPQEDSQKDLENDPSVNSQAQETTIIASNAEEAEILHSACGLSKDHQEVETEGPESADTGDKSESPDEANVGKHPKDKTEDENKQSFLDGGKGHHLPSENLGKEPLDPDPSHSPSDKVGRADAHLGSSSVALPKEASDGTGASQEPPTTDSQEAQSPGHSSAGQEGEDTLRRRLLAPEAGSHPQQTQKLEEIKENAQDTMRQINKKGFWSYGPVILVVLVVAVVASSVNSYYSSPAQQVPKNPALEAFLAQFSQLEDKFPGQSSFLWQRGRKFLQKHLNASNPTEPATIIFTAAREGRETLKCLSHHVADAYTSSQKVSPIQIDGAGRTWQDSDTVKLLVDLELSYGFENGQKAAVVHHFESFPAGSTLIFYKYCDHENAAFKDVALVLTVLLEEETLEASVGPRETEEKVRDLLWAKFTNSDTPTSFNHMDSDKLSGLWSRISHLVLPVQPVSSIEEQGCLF
Test: LULL1 binders on small-molecule microarray, primary screen, cell lysate, human LULL1 lysate, 635/667 nm fluorescence (AID 1092);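 note: probe is lysate of COS7 cells overexpressing human LULL1; score merges per-feature 667 nm fluorescence with signal-to-noise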
Conditions: hLULL1 lysate binding, 635 nm fluorescence, higher = more signal
Assignment: determine reported composite z-score for the given compounds.
When you answer, write just the number.

INPUT: For the compound O=C1NC(=O)C2C1C=CC(C(O)C=Cc1ccc([N+](=O)[O-])cc1)N2Nc1ccccn1 (centres undefined) , give its reported composite z-score.
OUTPUT: 1.51

INPUT: For the compound `Cc1ccc(N2C(=O)c3ccccc3[C@](C)(C(=O)O)[C@@H]2c2ccc(CO)cc2)nc1` , give its reported composite z-score.
OUTPUT: -1.18

INPUT: For the compound `C=C(COC)C(=O)CC[C@H](OC(=O)c1ccccc1-c1ccccc1C(=O)O)c1cccc(OCCO)c1` , give its reported composite z-score.
OUTPUT: 4.32

INPUT: For the compound `CN(C)CCCC[C@@H]1NC(=O)[C@@H]2C[C@H](C(=O)NCCCCCNC(=O)CS)[C@H](c3ccc(O)cc3)N2C1=O` , give its reported composite z-score.
OUTPUT: 0.863

----------
Biological target: Torsin-1A (Homo sapiens)
Assay: small-molecule binders of mutant TOR1A in lysate, primary screen, cell lysate, small-molecule microarray, COS7 lysate, 635/667 nm fluorescence (AID 1150);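 note: score pools 667 nm emission and signal to noise measuring lysate protein binding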
Conditions: COS7 hTOR1A mutant lysate, 635 nm fluorescence, higher = more signal
ENDPOINT_NAME: composite z-score
When you answer, write just the number.

INPUT: For the compound `C=C(CCCC)C(=O)CC[C@@H](OC(=O)c1cccnc1)c1cccc(OCCO)c1` , give its reported composite z-score.
OUTPUT: 0.0906

INPUT: For the compound `COc1ccc([Si](C)(C)[C@H]2[C@H](CC(=O)N3Cc4ccccc4C[C@H]3CO)O[C@@]3(C(=O)N(Cc4cccc(N5CCOC5=O)c4)c4ccccc43)[C@@H]2C)cc1` , give its reported composite z-score.
OUTPUT: 0.383

INPUT: For the compound `C=CCNC(=O)[C@H]1[C@@H]2C(=O)O[C@@H](c3ccccc3)[C@@H](c3ccccc3)N2[C@@H](c2ccccc2OCCO)[C@]12C(=O)N(C(=O)OCCOC)c1ccc(C#CCNC(N)=O)cc12` , give its reported composite z-score.
OUTPUT: 0.296

INPUT: For the compound O=C1OCCC/C=C\[C@H]2OC34C=CCN(CCN5CCOCC5)C(=O)[C@H]3N(CCCCCO)C(=O)[C@@H]4C12 (some centres undefined) , give its reported composite z-score.
OUTPUT: -0.649

----------
Assignment: determine reported composite z-score for the given compounds.
Test: binders from COS7 lysate, DM2A8 probe, primary screen, torsin A project, cell lysate, small-molecule microarray, fluorescence 635/667 (AID 1065)
Settings: higher = more signal, COS7 lysate expressing mutant human TOR1A
When you answer, write just the number.

INPUT: For the compound `COC(=O)C[C@H]1O[C@]2(C(=O)N(Cc3ccccc3)c3ccc(I)cc32)[C@@H](C)[C@@H]1[Si](C)(C)c1ccc(OC)cc1` , give its reported composite z-score.
OUTPUT: -0.529

INPUT: For the compound `CCC#CCN(Cc1ccccc1Br)[C@H](/C=C/c1ccccc1)[C@@H](O)Cc1ccccc1` , give its reported composite z-score.
OUTPUT: -0.387

INPUT: For the compound `CO[C@]12C=C(Br)[C@@H](C[C@@H]1c1ccccc1)[C@@]1(CO1)C2=O` , give its reported composite z-score.
OUTPUT: 0.215

INPUT: For the compound `COc1ccc(CCNC(=O)[C@@]2(c3ccc([N+](=O)[O-])cc3)CC(=O)N(C(C)C)[C@@H]2c2ccc(CO)cc2)cc1` , give its reported composite z-score.
OUTPUT: -0.716

INPUT: For the compound CC(C)N1CC=CC23O[C@@H]4/C=C\CCCOC(=O)C4[C@H]2C(=O)N(CCO)[C@@H]3C1=O (stereo not given in full) , give its reported composite z-score.
OUTPUT: -0.158

INPUT: For the compound `COC(=O)C1=C(C)N(Cc2ccccc2)c2c(C(=O)OC)c(C(=O)OC)c(C(=O)OC)c(=O)n2[C@@H]1c1ccccc1` , give its reported composite z-score.
OUTPUT: 0.657

INPUT: For the compound `COCCOC(=O)N1C(=O)[C@@]2(c3cc(C#CC4=CCCCC4)ccc31)[C@H](C(=O)NC[C@H](O)c1ccccc1)[C@H]1C(=O)O[C@H](c3ccccc3)[C@H](c3ccccc3)N1[C@@H]2c1ccccc1OCCO` , give its reported composite z-score.
OUTPUT: 0.333

INPUT: For the compound `O=C1c2ccccc2[C@](Cc2ccccc2I)(C(=O)O)[C@H](c2ccc(CO)cc2)N1C1CCCCC1` , give its reported composite z-score.
OUTPUT: 0.297

INPUT: For the compound O=C1OCC=C[C@H]2OC34C=CCN(Cc5ccccc5)C(=O)[C@H]3N(CCO)C(=O)[C@@H]4[C@@H]12 (stereo not given in full) , give its reported composite z-score.
OUTPUT: -0.0397

INPUT: For the compound `COCCOC(=O)N1C(=O)[C@@]2(c3cc(C#CC4=CCCCC4)ccc31)[C@H](C(=O)NC[C@H](O)c1ccccc1)[C@H]1C(=O)O[C@H](c3ccccc3)[C@H](c3ccccc3)N1[C@@H]2c1ccc(OCCO)cc1` , give its reported composite z-score.
OUTPUT: 0.782

INPUT: For the compound `Cc1ccc(S[C@]2(C(=O)NC(C)C)CC(=O)N(C3Cc4ccccc4C3)[C@@H]2c2ccc(CO)cc2)cc1` , give its reported composite z-score.
OUTPUT: 0.172

INPUT: For the compound `O=C(NCc1ccccc1)[C@@]1(CCS(=O)(=O)c2ccccc2)COC(c2ccc(OCCCO)cc2)=N1` , give its reported composite z-score.
OUTPUT: 0.985

INPUT: For the compound `O=C/C=C/c1ccc(/C=C/c2ccccc2)cc1` , give its reported composite z-score.
OUTPUT: 0.107

INPUT: For the compound `COCCOC(=O)N1C(=O)[C@@]2(c3cc(C#CC4(O)CCCCCC4)ccc31)[C@H](C(=O)N1CCCCCCC1)[C@H]1C(=O)O[C@H](c3ccccc3)[C@H](c3ccccc3)N1[C@@H]2c1ccc(O)cc1` , give its reported composite z-score.
OUTPUT: 0.536

INPUT: For the compound `C=C(CCCC)C(=O)CC[C@@H](OC(C)=O)c1ccccc1OCCO` , give its reported composite z-score.
OUTPUT: 0.844
